- studySystem: Human HER3, endogenous, on human cancer cell lines (SK-Br-3, MCF7, BT-474) (human, UniProt P21860 20-1342)
- Sequence (P21860 20-1342): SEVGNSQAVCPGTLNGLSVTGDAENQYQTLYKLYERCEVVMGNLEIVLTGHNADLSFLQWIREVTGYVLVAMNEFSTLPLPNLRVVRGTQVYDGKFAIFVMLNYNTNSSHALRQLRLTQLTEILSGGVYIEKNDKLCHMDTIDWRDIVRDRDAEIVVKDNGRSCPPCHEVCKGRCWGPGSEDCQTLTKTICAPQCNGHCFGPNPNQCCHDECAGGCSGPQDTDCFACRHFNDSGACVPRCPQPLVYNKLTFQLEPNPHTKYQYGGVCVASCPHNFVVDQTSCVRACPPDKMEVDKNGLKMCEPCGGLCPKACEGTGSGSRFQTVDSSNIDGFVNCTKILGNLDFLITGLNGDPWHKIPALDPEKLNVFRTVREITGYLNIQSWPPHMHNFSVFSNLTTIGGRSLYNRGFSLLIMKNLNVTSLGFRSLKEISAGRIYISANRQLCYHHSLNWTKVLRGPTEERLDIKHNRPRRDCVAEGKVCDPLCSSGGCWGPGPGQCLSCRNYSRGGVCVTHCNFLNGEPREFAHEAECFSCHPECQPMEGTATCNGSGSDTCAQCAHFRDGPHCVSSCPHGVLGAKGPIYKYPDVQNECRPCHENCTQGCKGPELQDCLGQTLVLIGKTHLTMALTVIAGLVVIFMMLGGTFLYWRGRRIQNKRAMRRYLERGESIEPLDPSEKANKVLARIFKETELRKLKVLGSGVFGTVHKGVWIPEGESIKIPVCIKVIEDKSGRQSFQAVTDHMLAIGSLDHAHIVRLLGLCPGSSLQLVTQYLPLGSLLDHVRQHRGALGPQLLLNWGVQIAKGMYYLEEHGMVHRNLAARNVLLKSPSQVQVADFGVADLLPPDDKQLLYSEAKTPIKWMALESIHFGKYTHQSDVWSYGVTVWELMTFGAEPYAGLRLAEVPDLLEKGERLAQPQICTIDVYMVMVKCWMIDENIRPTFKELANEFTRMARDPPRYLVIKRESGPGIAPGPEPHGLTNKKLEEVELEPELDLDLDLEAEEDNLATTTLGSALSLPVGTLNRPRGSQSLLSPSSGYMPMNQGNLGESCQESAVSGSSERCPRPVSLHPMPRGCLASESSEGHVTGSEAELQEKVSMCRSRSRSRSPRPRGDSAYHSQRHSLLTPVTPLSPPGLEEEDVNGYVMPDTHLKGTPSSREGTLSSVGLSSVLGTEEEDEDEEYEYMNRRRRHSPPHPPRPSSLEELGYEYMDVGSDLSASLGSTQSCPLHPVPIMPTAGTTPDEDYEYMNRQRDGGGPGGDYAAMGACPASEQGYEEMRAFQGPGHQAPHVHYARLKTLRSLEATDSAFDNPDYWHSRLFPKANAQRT
- testDescription: cell-based or functional assay
recordedEndpoint: BT-474 pAkt (S473) % inhibition

binder | BT-474 pAkt (S473) % inhibition
MOR12925 (antibody, human IgG1, kappa, V domains shown, tested as IgG) VH: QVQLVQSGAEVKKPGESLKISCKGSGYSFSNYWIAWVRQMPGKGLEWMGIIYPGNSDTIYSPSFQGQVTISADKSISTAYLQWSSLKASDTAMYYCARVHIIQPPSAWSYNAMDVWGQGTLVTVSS VL: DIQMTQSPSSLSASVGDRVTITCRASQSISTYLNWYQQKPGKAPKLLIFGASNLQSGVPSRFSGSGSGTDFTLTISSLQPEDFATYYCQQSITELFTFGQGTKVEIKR | 80%
MOR13870 (antibody, human IgG1, kappa, V domains shown, tested as IgG) VH: QVQLVQSGAEVKKPGESLKISCKGSGYSFSNYWIAWVRQMPGKGLEWMGIIYPGTSDTIYSPSFQGQVTISADKSISTAYLQWSSLKASDTAMYYCARVHIIQPPSAWSYNAMDVWGQGTLVTVSS VL: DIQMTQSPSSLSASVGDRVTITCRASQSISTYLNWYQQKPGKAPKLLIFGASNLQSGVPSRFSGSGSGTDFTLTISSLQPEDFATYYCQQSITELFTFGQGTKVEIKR | 77%

Kindly review the next binder as well.
Q: Given MOR13750 (antibody, human IgG1, kappa, V domains shown, tested as IgG) VH: QVQLVQSGAEVKKPGESLKISCKGSGYSFTSSWVAWVRQMPGKGLEWMGIIYPGGSDTIYSPSFQGQVTISADKSISTAYLQWSSLKASDTAMYYCARVHIIQPPSAWSYNAMDVWGQGTLVTVSS VL: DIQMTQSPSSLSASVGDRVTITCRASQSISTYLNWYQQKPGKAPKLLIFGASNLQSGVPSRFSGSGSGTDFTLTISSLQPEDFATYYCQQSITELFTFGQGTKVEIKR , state its recorded BT-474 pAkt (S473) % inhibition.
A: 60%

Attribution: patent US20130273029A1
